Tested on: HI-HeLa cells
EXPERIMENTAL DETAILS: Cytotoxicity in mock-infected HI-HeLa cells (XTT, antirhinoviral assay)
Assay type: cell-based
CONDITION CONTEXT: mock-infected HI-HeLa cells; line for HRV serotype 10; read-out: CC50
# maps each entry to its CC50

CCOC(=O)/C=C/C(CCC(N)=O)NC(=O)C(CC(=O)C(NC(=O)SC1CCCC1)C(C)C)Cc1ccc(F)cc1 (stereo not drawn); > 10000 nM
CCOC(=O)/C=C/C(CCC(N)=O)NC(=O)C(CC(=O)C(NC(=O)SC1CCCC1)C(C)C)Cc1ccc(C)cc1 (stereo not drawn); > 3000 nM
CCOC(=O)/C=C/C(CCC(N)=O)NC(=O)C(CC(=O)C(NC(=O)OC1CCCC1)C(C)C)Cc1ccc(C)cc1 (stereo not drawn); > 3000 nM
CCOC(=O)/C=C/C(CCC(N)=O)NC(=O)C(CC(=O)C(CC(C)C)NC1CCCC1)Cc1ccc(F)cc1 (stereo not drawn); > 3000 nM
CCOC(=O)/C=C/[C@H](CCC(N)=O)NC(=O)[C@@H](CC(=O)[C@@H](NC(=O)OC1CCCC1)C(C)C)Cc1ccc(F)cc1; > 3000 nM
CCOC(=O)/C=C/C(CCC(N)=O)NC(=O)C(CC(=O)C(NC(=O)SC1CCCC1)C(C)(C)C)Cc1ccccc1 (stereo not drawn); > 32000 nM
CCOC(=O)/C=C/C(CCC(N)=O)NC(=O)C(CC(=O)C(NC(=O)SC1CCCC1)C(C)C)Cc1ccccc1 (stereo not drawn); > 10000 nM
CCOC(=O)/C=C/C(CCC(N)=O)NC(=O)C(CC(=O)C(NC(=O)SC1CCCC1)C(C)C)Cc1ccc(C(F)(F)F)cc1 (stereo not drawn); > 3000 nM

Next compound, please.
For CCOC(=O)/C=C/C(CCC(N)=O)NC(=O)C(CC(=O)C(CC(C)C)NC(=O)SC1CCCC1)Cc1ccc(C)cc1 (stereo not drawn) , what is its reported CC50? > 10000 nM

Source: patent US20040072907A1
